Recorded values, source patent US6583175B2.

# runDescription: in vivo
# conditionSummary: Artemia salina (brine shrimp), other: exposure in artificial seawater in the sample vial

molecule: CC(C)COC(=S)SCCSC(=S)OCC(C)C [Ethylene bis (isobutylxanthate), Ethylene Bis (isobutylxanthate)]
LC50 at 24 h [µg/mL]: 25.8
